- TGT: T1, PUF4 RNA-binding domain (Saccharomyces cerevisiae, UniProt P25339 537-888)
- T1 sequence: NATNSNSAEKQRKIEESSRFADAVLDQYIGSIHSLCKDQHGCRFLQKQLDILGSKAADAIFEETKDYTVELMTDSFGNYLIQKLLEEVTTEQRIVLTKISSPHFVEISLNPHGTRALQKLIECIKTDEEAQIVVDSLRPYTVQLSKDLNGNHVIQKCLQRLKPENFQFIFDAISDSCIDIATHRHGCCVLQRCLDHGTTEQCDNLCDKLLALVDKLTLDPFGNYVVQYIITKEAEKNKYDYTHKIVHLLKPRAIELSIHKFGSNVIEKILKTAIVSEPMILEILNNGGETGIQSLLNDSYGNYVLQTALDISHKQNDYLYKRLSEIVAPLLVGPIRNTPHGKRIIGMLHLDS
- EXPERIMENT_NOTES: Mg; RNA-MaP; 20 mM Na-HEPES pH 7.4, 30 mM KOAc, 0.75 mM MgCl2, 0.1% Tween-20, 5% glycerol, 0.1 mg/mL BSA, 2 mM DTT; 25 C; 0.0125-409.6 nM protein
- CONDITION_NOTES: tags: N-His6-TEV cleaved; C-SNAP kept, Cy3B-labelled; label: tethered on chip by stalled RNA polymerase
ASSAY_METRIC: pKd
Quick note: pKd means taking -log10 of the concentration in moles per liter.

Worked cases, pKd given:
BINDER	pKd
Id_ii_S2_P5E.3_K5.2_C5.2_[T-1A]_H5.2_A5.1_F5.1_T5.2_[A12T] (ssRNA) RNA: UUUGAUUAAUAUGAUAUCGUUCUUUCUCAUAUAUUAUUAUUUUCUUUCUCGAUAUCAUAUUAAUCUUU	6.65
ACAAACAGUAUAUAUUAUCACAAAC (ssRNA) [Id_ii_S3_P4E.3_K4.2_C4.2_[C-2A]_[T-1G]_H4.2_A4.1_F4.1_T4.2_[G10T]_[T11C]]	7.59

For the binder shown here, UCUCUUUGUAACCCUUCUCUU (ssRNA) [Ic_S1_P4E.1_K4.1_C4.1_H4.1_A4.1_[T5A]_[A6C]_[T7C]_F4.1_[T8C]_[A9T]_T4.1] , give the reported pKd.
6.14

For the binder shown here, Ic_S2_P5E.1_K5.1_C5.1_H5.1_A5.1_[T6A]_[A7G]_F5.1_[T8C]_[T9C]_[A10T]_T5.1 (ssRNA) RNA: UUUGAUUAAUAUGAUAUCGUUCUUUCUUGUAUAGCCUUUCUUUCUCGAUAUCAUAUUAAUCUUU , give the reported pKd.
7.21

For the binder shown here, UCUCUUUGUAUUGGUAUCUCUU (ssRNA) [Ic_S1_P5E.1_K5.1_C5.1_H5.1_A5.1_[A7G]_F5.1_[T8G]_T5.1] , give the reported pKd.
7.43

For the binder shown here, Ib_S4_P5E.1_K5.1_C5.1_H5.1_A5.1_[A7G]_F5.1_[T9C]_T5.1 (ssRNA) RNA: UUUGACAACUGAUCGUUCUUUCUUGUAUUGUCAUUCUUUCUCGAUCAGUUGUCUUU , give the reported pKd.
6.41

For the binder shown here, Id_ii_S4_P3E.2_K3.1_C3.2_[C-2T]_H3.1_A3.1_F3.1_T3.2_[T9C]_[A10T] (ssRNA) RNA: UUUGACAACUGAUCGUUCUUUCUUUUGUAUAUACUUUCUUUCUCGAUCAGUUGUCUUU , give the reported pKd.
8.55

For the binder shown here, UCUCUUUGUAUUAUUUAUCUCUU (ssRNA) [Ie_S1_P5E.1_K5.1_C5.1_H5.1_A5.1_F5.1_[+8T]_T5.1] , give the reported pKd.
8.05

For the binder shown here, Id_ii_S2_P3E.3_K3.2_C3.2_[C-2T]_[T-1G]_H3.2_A3.1_F3.1_T3.2_[T9G]_[A10T] (ssRNA) RNA: UUUGAUUAAUAUGAUAUCGUUCUUUCUUGUAUAUAUAGUUUCUUUCUCGAUAUCAUAUUAAUCUUU , give the reported pKd.
8.42

For the binder shown here, Ie_S4_P5E.1_K5.1_C5.1_H5.1_A5.1_F5.1_[+9CCT]_T5.1 (ssRNA) RNA: UUUGACAACUGAUCGUUCUUUCUUGUAUUAUUCCUAUUCUUUCUCGAUCAGUUGUCUUU , give the reported pKd.
7.76

For the binder shown here, Ic_S2_P5E.1_K5.1_C5.1_H5.1_A5.1_[T5C]_[T6A]_[A7G]_F5.1_[T9G]_[A10C]_T5.1 (ssRNA) RNA: UUUGAUUAAUAUGAUAUCGUUCUUUCUUGUACAGUGCUUCUUUCUCGAUAUCAUAUUAAUCUUU , give the reported pKd.
8.04

For the binder shown here, Ic_S2_P4E.1_K4.1_C4.1_H4.1_A4.1_F4.1_[A9T]_T4.1 (ssRNA) RNA: UUUGAUUAAUAUGAUAUCGUUCUUUCUUGUAUAUUUUUCUUUCUCGAUAUCAUAUUAAUCUUU , give the reported pKd.
8.81

For the binder shown here, Ia_S2_P5E.1_K5.1_C5.1_H5.1_A5.1_F5.1_[T8C]_T5.1 (ssRNA) RNA: UUUGAUUAAUAUGAUAUCGUUCUUUCUUGUAUUACUAUUCUUUCUCGAUAUCAUAUUAAUCUUU , give the reported pKd.
8.52

For the binder shown here, UCUCUUCAUGUAUAUUACUUCUCUU (ssRNA) [Id_ii_S1_P4E.2_K4.1_C4.2_[T-1A]_H4.1_A4.1_F4.1_T4.2_[G10C]] , give the reported pKd.
8.97

For the binder shown here, UCUCUUUCUAUAUAUUAAUUCUCUU (ssRNA) [Id_ii_S1_P4E.3_K4.2_C4.2_[C-2T]_[T-1C]_H4.2_A4.1_F4.1_T4.2_[G10A]] , give the reported pKd.
7.40
